Listed here: items and their measured NFκB luc, 937.5 ng/ml, with x linker.
- ASSAYED_SYSTEM: human LTBR on cells (human, UniProt P36941 31-435)
- ASSAY_INFO: cell-based or functional assay
Express your answer in RLU, writing the number without its unit.

Below, 4 binders whose answers are already recorded.
INSERT INTO results (binder, display_unit, observed_result) VALUES
  ('P1AF0064 (antibody, human IgG1, kappa, L234A L235A, V domains shown, human IgG1 PG LALA constant regions; V domains from rat immunization; also called LTBR (0064)) VH: EVQLQQYGAELGKPGTSVKLSCKVSGYNIGNTYIHWVIQRPGKGLEWIGRIDPTNGNTICTEKFKNKATLTADLSSNTAYMQLSQLKSDDTAIYFCAPTTLTTPDSFAYWGQGTLVTVSS VL: DIQMTQSPSQLSASVGDRVTLSCKASQNIYKYLNWYQQKLGEAPRLLIYSTNILQTGIPSRFSGSGSGTDYTLTISSLQPEDAATYFCQKYYSGFTFGSGTKLEMKR', 'RLU', 54800),
  ('P1AE9457 (antibody, human IgG1, kappa, L234A L235A, V domains shown, human IgG1 PG LALA; from transgenic rabbit immunization; also called LTBR (9457)) VH: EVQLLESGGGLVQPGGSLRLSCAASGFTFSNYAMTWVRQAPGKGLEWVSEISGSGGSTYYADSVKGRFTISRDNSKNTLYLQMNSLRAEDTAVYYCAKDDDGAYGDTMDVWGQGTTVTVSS VL: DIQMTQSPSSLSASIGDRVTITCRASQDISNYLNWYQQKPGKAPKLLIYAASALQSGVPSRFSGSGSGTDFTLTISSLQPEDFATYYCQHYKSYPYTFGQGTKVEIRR', 'RLU', 25400),
  ('P1AF0080 (antibody, human IgG1, kappa, L234A L235A, V domains shown, human IgG1 PG LALA; from transgenic rabbit immunization; also called LTBR (0080)) VH: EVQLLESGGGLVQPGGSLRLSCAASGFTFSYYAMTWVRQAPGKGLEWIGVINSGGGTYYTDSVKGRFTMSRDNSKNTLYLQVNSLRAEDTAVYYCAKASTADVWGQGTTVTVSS VL: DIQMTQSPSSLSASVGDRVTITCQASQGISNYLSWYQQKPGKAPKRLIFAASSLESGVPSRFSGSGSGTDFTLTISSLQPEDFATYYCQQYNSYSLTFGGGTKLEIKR', 'RLU', 38200),
  ('P1AE9450 (antibody, human IgG1, kappa, L234A L235A, V domains shown, human IgG1 PG LALA; from transgenic rabbit immunization; also called LTBR (9450)) VH: EVQLLESGGGLVQPGGSLRLSCAASGFTVSSYVMKWFRQAPGKGLEWVSSISGSGGRPFYADSVKGRFTISRDNSKNALYLQMNSLRAEDTAVYYCANDMDVWGQGTTVTVSS VL: DIQMTQSPSSLSASVGDRVTITCRASQDISSFLKWYQQKPGKAPTLLIYAASALQSGVPSRFSGSGSGTDFTLTISSLQPEDFATYYCQQYNTYPLTFGGGTKVDIKR', 'RLU', 30100);

Now for a further binder.
(Q) Given the entry P1AE9452 (antibody, human IgG1, kappa, L234A L235A, V domains shown, human IgG1 PG LALA; from transgenic rabbit immunization; also called LTBR (9452)) VH: EVQLLESGGGLVQPGGSLRLSCAAAGFTFSSYPMTWVRQAPGKGLEWVSLISPSGATTYYADSVKGRFTISRDTSKNTLYLQMNSLRAEDTAVYYCAKNHYPDDVIIKNYYFYGVDVWGQGTTVTVSS VL: DIQMTQSPSSLSASVGDRVTITCRASQDISNYLNWYQQKPGKAPKSLIYAASSLQSGVPSRFSGSGSGTDFTLTISSLQPEDFANYYCQQTHTIPYSFGQGTNLEIKR , report its measured NFκB luc, 937.5 ng/ml, with x linker.
(A) 30300
